- target under test: T1, TRAIL (human, UniProt P50591 114-281)
- T1 construct: also called TNF-related apoptosis inducing ligand
- T1 sequence (P50591 114-281 limits assumed): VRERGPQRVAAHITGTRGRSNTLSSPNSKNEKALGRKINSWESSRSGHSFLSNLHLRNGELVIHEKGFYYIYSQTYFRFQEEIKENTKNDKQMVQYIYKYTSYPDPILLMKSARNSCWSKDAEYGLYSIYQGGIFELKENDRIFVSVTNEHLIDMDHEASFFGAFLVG
- protocol notes: phage ELISA

binder	binding result
I025B06 (scFv) scFv: QVQLVQSGAEVKKPGSSVKVSCRASGGSFNHAISWVRQAPGRGLEWMGGILPMYGTANYAQKFQGRVTITADKLTNTVYMDLSRLRYEDTAVYYCARELGLSIVGATTGALDMWGKGTLVTVSSGGGGSGGGGSGGGGSAQSVLTQPPSVSAAPGQKVTISCSGSSSNIGNNYVSWYQQIPGTAPKLLIYENNKRPSGIPDRFSGSKSGASAALDITGLQTGDEADYYCGTWHSSQVVFGGGTKLTVLG	no binding
I031G11 (scFv) scFv: QVQLVQSGAEVKKPGASVKVSCTVSGDSFSRHGISWVRQAPGQGLEWMGWISVYNGDTKYAQKVQGRVTMTTDTSTNTVYMELRRLRSDDTAVYYCARDEGRDLLTGYYWPNFFDSWGRGTLVTVSSGGGGSGGGGSGGGGSALSYVLTQPPSVSGTPGQKVTISCSGSRPNIGGNTVNWYQQLPGAAPKLLIYSNSQRPSGVPDRFSGSKYGTSASLAISGLQSDDEADYYCAAWDDSLTGPVFGGGTKLTVLG	no binding
